Tested on: Acinetobacter baumannii ARLG-1791 OXA-23
assay summary: MIC test of compounds in combination with antibiotics, Acinetobacter baumannii ARLG-1791
run conditions: Meropenem + compound (8 μg/mL)
property name: MIC of meropenem in combination with compound, Acinetobacter baumannii ARLG-1791 OXA-23 (µg/mL)
A number alone suffices; assume µg/mL.

molecule | system | display unit | result
CC(Sc1ccc2c(c1C(=O)O)OB(O)C1CC21)C1CCOCC1 (single isomer, unassigned) [Compound 17-a] | Acinetobacter baumannii ARLG-1791 OXA-23 | µg/mL | 16
NC1COCC1Sc1ccc2c(c1C(=O)O)OB(O)C1CC21 (single isomer, unassigned) [Compound 11_P2] | Acinetobacter baumannii ARLG-1791 OXA-23 | µg/mL | 2
CC(Sc1ccc2c(c1C(=O)O)OB(O)C1CC21)C1CC1 (single isomer, unassigned) [Compound 16-d] | Acinetobacter baumannii ARLG-1791 OXA-23 | µg/mL | 8
NC1COCC1Sc1ccc2c(c1C(=O)O)OB(O)C1CC21 (single isomer, unassigned) [Compound 11_P1] | Acinetobacter baumannii ARLG-1791 OXA-23 | µg/mL | 2
CC(Sc1ccc2c(c1C(=O)O)OB(O)C1CC21)C1CC1 (single isomer, unassigned) [Compound 16-c] | Acinetobacter baumannii ARLG-1791 OXA-23 | µg/mL | 8
CC(Sc1ccc2c(c1C(=O)O)OB(O)C1CC21)C1CC1 (single isomer, unassigned) [Compound 16-b] | Acinetobacter baumannii ARLG-1791 OXA-23 | µg/mL | 8

Next molecule, MIC of meropenem in combination with compound, Acinetobacter baumannii ARLG-1791 OXA-23 to be filled in.
Asked: Hello, please tell me recorded MIC of meropenem in combination with compound, Acinetobacter baumannii ARLG-1791 OXA-23 for this one: CC(Sc1ccc2c(c1C(=O)O)OB(O)C1CC21)C1CC1 (single isomer, unassigned) [Compound 16-a]
Given back: 4
